# target: anti-desmoglein 3 scFv antibody binding to human desmoglein 3 (DSG3)
# experiment_notes: inhibitors of anti-DSG3 scFv binding to DSG3, dose response, biochemical, DSG3-coupled beads, scFv-GFP, flow cytometry, Cherry Pick 1 (AID 602251)
measured_endpoint: pEC50
Answer as the number alone; pEC50 is minus log10 of concentration in mol/L.

Solved entries:
molecule	measured_endpoint	test_value
COc1cc(C(=O)Nc2cccc(-c3nc4cc(C)ccc4o3)c2C)cc(OC)c1OC	pEC50	4.61
O=[N+]([O-])c1ccc(N=NNc2ccc([N+](=O)[O-])cc2)cc1	pEC50	4.23
O=C(NC1CCCCC1)C(c1ccc(O)cc1)N(CC1CCCO1)C(=O)C1COc2ccccc2O1 (stereo not drawn)	pEC50	4.42
Cn1c(SCC(=O)NC2CCCCC2)nnc1-c1cc2cc(Cl)ccc2o1	pEC50	4.68
COCCCNC(=O)c1c(N)n(-c2ccc(S(N)(=O)=O)cc2)c2nc3ccccc3nc12	pEC50	4.59
CC1CCN(S(=O)(=O)c2ccc3c(c2)c(=O)c(C(=O)NCc2cccs2)cn3C)CC1	pEC50	4.25
O=C(Nc1ccc(F)cc1)Nc1ccc([N+](=O)[O-])cn1	pEC50	4.67

I would be grateful if you could share the reported pEC50 for O=C1c2ccccc2C(=O)N1Cc1nn2c(-c3ccc(Cl)cc3)nnc2s1 . 4.44
